# credit: patent US9487557B2

Test system: mammary gland of lactating dairy cows
procedure-summary: Field study of involution induction: change in lactose content of milk samples after a single intramammary infusion at dry-off
Format: in vivo
condition-label: difference in lactose concentration vs Day 0; Day 2 post treatment; single intramammary infusion, peptides 4 mg in 10 ml, casein hydrolyzate 20 ml
Square brackets hold non-standard residues; d marks the D form. Ends that are not written are not given here. pS = N[C@@H](COP(=O)(O)O)C(=O)O
Would you kindly list Changes in Lactose content in milk samples, Day 2, Mean for each of these substances?
Answers are plain numbers.

Solved cases (3 shown):
substance: Lys-Lys-Ser(P)-Leu-Ser(P)-Ser(P)-Ser(P)-NH2 (KK[pS]L[pS][pS][pS]-NH2; N-terminus assumed; SMILES CC(C)C[C@H](NC(=O)[C@H](COP(=O)(O)O)NC(=O)[C@H](CCCCN)NC(=O)[C@@H](N)CCCCN)C(=O)N[C@@H](COP(=O)(O)O)C(=O)N[C@@H](COP(=O)(O)O)C(=O)N[C@@H](COP(=O)(O)O)C(N)=O) [A(p)]
numeric-result: −1.364
--
substance: KKSLSS-NH2 [A]
numeric-result: −1.268
--
substance: Lys-Lys-Ser-Ser-Ser-NH2 [B]
numeric-result: −0.969

Count: 5. Required value per item: Changes in Lactose content in milk samples, Day 2, Mean.
1. Lys-Ser(P)-Ser(P)-Ser(P)-Glu-Glu-NH2 (K[pS][pS][pS]EE-NH2; N-terminus assumed; SMILES NCCCC[C@H](N)C(=O)N[C@@H](COP(=O)(O)O)C(=O)N[C@@H](COP(=O)(O)O)C(=O)N[C@@H](COP(=O)(O)O)C(=O)N[C@@H](CCC(=O)O)C(=O)N[C@@H](CCC(=O)O)C(N)=O) [E(p), casein-derived peptide, positive control]
2. Lys-Lys-Ser(P)-Ser(P)-Ser(P)-NH2 (KK[pS][pS][pS]-NH2; N-terminus assumed; SMILES NCCCC[C@H](NC(=O)[C@@H](N)CCCCN)C(=O)N[C@@H](COP(=O)(O)O)C(=O)N[C@@H](COP(=O)(O)O)C(=O)N[C@@H](COP(=O)(O)O)C(N)=O) [B(p)]
3. Glu-Ser(P)-Leu-Ser(P)-Ser(P)-Ser(P)-Glu-Glu-NH2 (E[pS]L[pS][pS][pS]EE-NH2; N-terminus assumed; SMILES CC(C)C[C@H](NC(=O)[C@H](COP(=O)(O)O)NC(=O)[C@@H](N)CCC(=O)O)C(=O)N[C@@H](COP(=O)(O)O)C(=O)N[C@@H](COP(=O)(O)O)C(=O)N[C@@H](COP(=O)(O)O)C(=O)N[C@@H](CCC(=O)O)C(=O)N[C@@H](CCC(=O)O)C(N)=O) [D(p), casein-derived peptide, positive control]
4. Lys-Lys-Ser(P)-Ser(P)-NH2 (KK[pS][pS]-NH2; N-terminus assumed; SMILES NCCCC[C@H](NC(=O)[C@@H](N)CCCCN)C(=O)N[C@@H](COP(=O)(O)O)C(=O)N[C@@H](COP(=O)(O)O)C(N)=O) [C(p)]
5. KSSSEE-NH2

A:
1. −1.530
2. −2.013
3. −1.460
4. −1.427
5. −1.531

Count: 2. Required value per item: Changes in Lactose content in milk samples, Day 2, Mean.
1. Lys-Lys-Ser-Ser-NH2 [C]
2. ESLSSSEE-NH2 [D]

A:
−1.554
−1.387

====

Would you kindly list Changes in Lactose content in milk samples, Day 1, Mean for each of these substances?
Test system: mammary gland of lactating dairy cows
procedure-summary: Field study of involution induction: change in lactose content of milk samples after a single intramammary infusion at dry-off
Format: in vivo
condition-label: difference in lactose concentration vs Day 0; Day 1 post treatment; single intramammary infusion, peptides 4 mg in 10 ml, casein hydrolyzate 20 ml
Ends that are not written are not given here.
One number for each entry.

Solved cases (2 shown):
substance: Lys-Lys-Ser-Ser-Ser-NH2 [B]
numeric-result: −0.320

substance: Lys-Lys-Ser-Ser-NH2 [C]
numeric-result: −0.846

// below: Changes in Lactose content in milk samples, Day 1, Mean requested for another substance
Q: Query (substance): KKSLSS-NH2 [A] ; field requested: Changes in Lactose content in milk samples, Day 1, Mean
A: −0.463
